Hey, just so you know, these numbers are from patent US10898469B2.

test system: HCT-116 cells; assay: Inhibition test for sphere-forming ability of cancer cells in the presence of BSA (Test Example 2), HCT-116; type: cell-based, human; settings: HCT-116 cells, in the presence of 5% BSA, cultured 4 days
pIC50: −log10 of the molar value.
Observed Property: pIC50

{"Smiles Str": "O=C(Nc1cccnc1)c1cn(Cc2cccc(Cl)c2)cn1", "Result": "< 5.00"}

Input: Read the entry "O=C(Nc1cn(Cc2cccc(C(F)(F)F)c2)cn1)c1ccc2ncccc2c1" and write its reported pIC50.
Output: < 5.00

Input: Read the entry "COc1ccc(C(=O)Nc2cn(Cc3ccccc3F)cn2)cc1OC" and write its reported pIC50.
Output: < 5.00

Input: Read the entry "O=C(Nc1cn(Cc2cccc(C(F)(F)F)c2)cn1)c1cncnc1" and write its reported pIC50.
Output: < 5.00
